- Test Description: Single ascending dose study in healthy volunteers, plasma PK (Example 2)
- Assay type: in vivo, human
- Conditions Used: human, plasma, oral, 22 mg, after HCHF breakfast; mean
Measure: AUC(0-t) (ng·h/mL)
Number only, in ng·h/mL; omit the unit.

Kindly note the recorded AUC(0-t) for `[2H][C@@](C)(NC(=O)COC(F)F)c1cc(F)cc(Cl)c1COc1cccc2c(-c3ncnn3C)cc(C)nc12` , which is 1020

====

- Test Description: Single ascending dose study in healthy volunteers, plasma PK (Example 2)
- Assay type: in vivo, human
- Conditions Used: human, plasma, oral, 22 mg, fed (HCHF breakfast); read-out: Mean C24h
Measure: concentration at 24 h

Entry `[2H][C@@](C)(NC(=O)COC(F)F)c1cc(F)cc(Cl)c1COc1cccc2c(-c3ncnn3C)cc(C)nc12` — recorded concentration at 24 h = 5.39 ng/mL
